systemTested: AL protease (Nesterenkonia aethiopica, UniProt D0VWT7)
Sequence (D0VWT7 entry or part of it): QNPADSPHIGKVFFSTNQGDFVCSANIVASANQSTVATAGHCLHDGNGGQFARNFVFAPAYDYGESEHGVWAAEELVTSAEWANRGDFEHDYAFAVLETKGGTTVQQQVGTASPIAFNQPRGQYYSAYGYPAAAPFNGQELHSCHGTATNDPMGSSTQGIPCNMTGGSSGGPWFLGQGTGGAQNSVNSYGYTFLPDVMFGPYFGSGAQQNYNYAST
methodDescription: Assay with synthetic peptide, pNA, AMC, NNap and ester substrates (kinetic parameters)
Format: biochemical, Nesterenkonia sp. AL
conditionDescription: result in words
Starred links: 1 amine or outer side, 2 acyl side, 3 side chain; linkers in the order of their positions; H or OH if unused. *: point of attachment. pNA = O=[N+]([O-])c1ccc(N*)cc1; Suc = O=C(CCC(=O)[*:2])[*:1]
quantityKind: Hydrolysis of synthetic substrate by AL protease

# substance, valueReported
measured = [
    ("N-succinyl-Ala-Ala-Val-p-nitroanilide (Suc-Ala-Ala-Val-pNA; SMILES CC(C)[C@H](NC(=O)[C@H](C)NC(=O)[C@H](C)NC(=O)CCC(=O)O)C(=O)Nc1ccc([N+](=O)[O-])cc1) [Suc-A-A-V-pNA]", "unable to hydrolyze"),
    ("N-Succinyl-Ala-Ala-Ala-p-nitroanilide [Suc-A-A-A-pNA]", "unable to hydrolyze"),
    ("N-succinyl-Gly-Gly-Gly-p-nitroanilide (Suc-Gly-Gly-Gly-pNA; SMILES O=C(O)CCC(=O)NCC(=O)NCC(=O)NCC(=O)Nc1ccc([N+](=O)[O-])cc1) [Suc-G-G-G-pNA]", "unable to hydrolyze"),
]

The origin of these recorded values is patent US20060142171A1.
